tested on: 616215-338-R-J1-PDC tumor spheroids, viability; test: Anticancer human tumor 616215-338-R-J1-PDC patient-derived colon adenocarcinoma cell line growth inhibition [GQUAD]; settings: second compound 10 µM; first compound 3.16 µM; spheroids with HUVEC and MSC; active = viability on the fitted dose curve at most 10% of control; inactive = the rest
Result category, one only: active, inactive

Consider the worked cases shown below.
- Compound: "O=C(NO)c1cnc(N2CCN(S(=O)(=O)c3ccc4ccccc4c3)CC2)nc1 + Cc1cnc(CNC(=O)c2c(=O)c3ccc(N4CCCN(C)CC4)nc3n3c2sc2ccccc23)cn1"
  Group label: "active"
- Compound: "CC1COCCN1c1cc(C2(S(C)(=N)=O)CC2)nc(-c2ccnc3[nH]ccc23)n1 (stereo not given) + Cc1cnc(CNC(=O)c2c(=O)c3ccc(N4CCCN(C)CC4)nc3n3c2sc2ccccc23)cn1"
  Group label: "inactive"

// return assay outcome for O=C(c1cc(Cc2n[nH]c(=O)c3ccccc23)ccc1F)N1CCN(C(=O)C2CC2)CC1 + Cc1cnc(CNC(=O)c2c(=O)c3ccc(N4CCCN(C)CC4)nc3n3c2sc2ccccc23)cn1
inactive

Just curious, what result did CC1COCCN1c1cc(C2(O)CC3CCC(C2)O3)c2cnn(-c3ccn[nH]3)c2n1 (stereo not given) + Cc1cnc(CNC(=O)c2c(=O)c3ccc(N4CCCN(C)CC4)nc3n3c2sc2ccccc23)cn1 get here?
active

Name the outcome recorded for C=CCn1c(=O)c2cnc(Nc3ccc(N4CCN(C)CC4)cc3)nc2n1-c1cccc(C(C)(C)O)n1 + CN(C)c1ccc(Nc2c3ccc(NC(=O)CCN4CCCC4)cc3nc3cc(NC(=O)CCN4CCCC4)ccc23)cc1 in the assay.
active

* * *

system: 616215-338-R-J1-PDC tumor spheroids, viability; assay: Anticancer human tumor 616215-338-R-J1-PDC cell line growth inhibition [GQUAD]; conditions: second compound 10 µM; first compound 3.16 µM; spheroids with HUVEC and MSC; active = viability on the fitted dose curve at most 10% of control; inactive = the rest;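 note: spheroids exposed to agents for 7 days before readout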
Please state which outcome applies, choosing from active, inactive

- Compound: "C=CC(=O)N1CCN(c2nc(=O)n(-c3c(C)ccnc3C(C)C)c3nc(-c4c(O)cccc4F)c(F)cc23)C(C)C1 (stereo not given) + CN(C)c1ccc(Nc2c3ccc(NC(=O)CCN4CCCC4)cc3nc3cc(NC(=O)CCN4CCCC4)ccc23)cc1"
  Group label: "inactive"
- Compound: "C=CC(=O)N1CCN(c2nc(=O)n(-c3c(C)ccnc3C(C)C)c3nc(-c4c(O)cccc4F)c(F)cc23)C(C)C1 (stereo not given) + Cc1cnc(CNC(=O)c2c(=O)c3ccc(N4CCCN(C)CC4)nc3n3c2sc2ccccc23)cn1"
  Group label: "inactive"
- Compound: "CC1COCCN1c1cc(C2(O)CC3CCC(C2)O3)c2cnn(-c3ccn[nH]3)c2n1 (stereo not given) + CN(C)c1ccc(Nc2c3ccc(NC(=O)CCN4CCCC4)cc3nc3cc(NC(=O)CCN4CCCC4)ccc23)cc1"
  Group label: "inactive"
- Compound: "C#Cc1c(F)ccc2cc(O)cc(-c3ncc4c(N5CC6CCC(C5)N6)nc(OCC56CCCN5CC(F)C6)nc4c3F)c12 (stereo not given) + CN(C)c1ccc(Nc2c3ccc(NC(=O)CCN4CCCC4)cc3nc3cc(NC(=O)CCN4CCCC4)ccc23)cc1"
  Group label: "inactive"
- Compound: "COc1ncnc(C2CC2)c1-c1ncc2cnn(Cc3ccc(-c4nc(C(F)(F)F)cn4C(C)C)cc3)c2n1 + Cc1[nH]c2ccc(F)cc2c1-c1nc2c3cccnc3c3ncccc3c2[nH]1"
  Group label: "inactive"
- Compound: "C=CCn1c(=O)c2cnc(Nc3ccc(N4CCN(C)CC4)cc3)nc2n1-c1cccc(C(C)(C)O)n1 + Cc1cnc(CNC(=O)c2c(=O)c3ccc(N4CCCN(C)CC4)nc3n3c2sc2ccccc23)cn1"
  Group label: "inactive"
- Compound: "CC1COCCN1c1cc(C2(S(C)(=N)=O)CC2)nc(-c2ccnc3[nH]ccc23)n1 (stereo not given) + Cc1[nH]c2ccc(F)cc2c1-c1nc2c3cccnc3c3ncccc3c2[nH]1"
  Group label: "inactive"
- Compound: "Cc1cccc(N(C)C(=O)C2C(O)CCN2c2nc(C)cc(C(F)(F)F)c2C#N)c1 (stereo not given) + Cc1cnc(CNC(=O)c2c(=O)c3ccc(N4CCCN(C)CC4)nc3n3c2sc2ccccc23)cn1"
  Group label: "inactive"

Please look at the following compound next.
Check the results log: what was the call for CC1COCCN1c1cc(-c2ccnn2C)c2ccnc(-c3ccn[nH]3)c2n1 (stereo not given) + Cc1[nH]c2ccc(F)cc2c1-c1nc2c3cccnc3c3ncccc3c2[nH]1 ?
inactive

* * *

# maps each entry to its viability, T/C
system: 616215-338-R-J1-PDC tumor spheroids, viability; test: Anticancer human tumor 616215-338-R-J1-PDC cell line growth inhibition [GQUAD]; conditions: second compound 1 µM; first compound 0.0316 µM; stronger effect = lower value; spheroids with HUVEC and MSC;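 note: spheroids exposed to agents for 7 days before readout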;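 for viability, T/C: percent viability relative to DMSO vehicle control wells taken as 100%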
State the answer as a number, implicitly in %.

- Compound: "COc1cc(C2c3cc4c(cc3C(OC3OC5COC(C)OC5C(O)C3O)C3COC(=O)C23)OCO4)cc(OC)c1O (stereo not given) + Cc1[nH]c2ccc(F)cc2c1-c1nc2c3cccnc3c3ncccc3c2[nH]1"
  viability, T/C (%): 95.9
- Compound: "O=c1[nH]cc(F)c(=O)[nH]1 + Cc1[nH]c2ccc(F)cc2c1-c1nc2c3cccnc3c3ncccc3c2[nH]1"
  viability, T/C (%): 96
- Compound: "Cn1ncnc1[C@H]1c2n[nH]c(=O)c3cc(F)cc(c23)N[C@@H]1c1ccc(F)cc1 + Cc1[nH]c2ccc(F)cc2c1-c1nc2c3cccnc3c3ncccc3c2[nH]1"
  viability, T/C (%): 104
- Compound: "C#Cc1c(F)ccc2cc(O)cc(-c3ncc4c(N5CC6CCC(C5)N6)nc(OCC56CCCN5CC(F)C6)nc4c3F)c12 (stereo not given) + CN(C)c1ccc(Nc2c3ccc(NC(=O)CCN4CCCC4)cc3nc3cc(NC(=O)CCN4CCCC4)ccc23)cc1"
  viability, T/C (%): 109

Now look at this entry.
Quick check: viability, T/C of COc1ncnc(C2CC2)c1-c1ncc2cnn(Cc3ccc(-c4nc(C(F)(F)F)cn4C(C)C)cc3)c2n1 + CN(C)c1ccc(Nc2c3ccc(NC(=O)CCN4CCCC4)cc3nc3cc(NC(=O)CCN4CCCC4)ccc23)cc1 ?
101

* * *

system: 616215-338-R-J1-PDC tumor spheroids, viability; test: Anticancer human tumor 616215-338-R-J1-PDC cell line growth inhibition [GQUAD]; conditions: curve of first compound; second compound 0.316 µM; spheroids with HUVEC and MSC;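 note: spheroids exposed to agents for 7 days before readout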
// reported pIC50 per item
Notebook: values listed as pIC50 are -log10 of the concentration (mol/L).

- Compound: "CCc1c2c(nc3ccc(O)cc13)-c1cc3c(c(=O)n1C2)COC(=O)[C@]3(O)CC + Cc1[nH]c2ccc(F)cc2c1-c1nc2c3cccnc3c3ncccc3c2[nH]1"
  pIC50: 8.06
- Compound: "CCCS(=O)(=O)Nc1ccc(F)c(C(=O)c2c[nH]c3ncc(-c4ccc(Cl)cc4)cc23)c1F + CN(C)c1ccc(Nc2c3ccc(NC(=O)CCN4CCCC4)cc3nc3cc(NC(=O)CCN4CCCC4)ccc23)cc1"
  pIC50: 5.27
- Compound: "O=c1[nH]cc(F)c(=O)[nH]1 + Cc1[nH]c2ccc(F)cc2c1-c1nc2c3cccnc3c3ncccc3c2[nH]1"
  pIC50: 6.23

Query compound follows.
Requested read-out: pIC50. Entry: CCCS(=O)(=O)Nc1ccc(F)c(C(=O)c2c[nH]c3ncc(-c4ccc(Cl)cc4)cc23)c1F + Cc1[nH]c2ccc(F)cc2c1-c1nc2c3cccnc3c3ncccc3c2[nH]1
5.25

* * *

Known viability, T/C of a selection of compounds
test system: 616215-338-R-J1-PDC tumor spheroids, viability; assay: Anticancer human tumor 616215-338-R-J1-PDC cell line growth inhibition [GQUAD]; conditions: second compound 0.1 µM; first compound 10 µM; stronger effect = lower value; spheroids with HUVEC and MSC;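 note: spheroids exposed to agents for 7 days before readout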;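 for viability, T/C: percent viability relative to DMSO vehicle control wells taken as 100%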
Entry rule: numbers only, all in %.

Before answering, review these 4 worked examples.
- Compound: "CC1COCCN1c1cc(C2(O)CC3CCC(C2)O3)c2cnn(-c3ccn[nH]3)c2n1 (stereo not given) + Cc1[nH]c2ccc(F)cc2c1-c1nc2c3cccnc3c3ncccc3c2[nH]1"
  viability, T/C, %: 17
- Compound: "Nc1ccn(C2OC(CO)C(O)C2(F)F)c(=O)n1 (stereo not given) + Cc1cnc(CNC(=O)c2c(=O)c3ccc(N4CCCN(C)CC4)nc3n3c2sc2ccccc23)cn1"
  viability, T/C, %: 14.9
- Compound: "CC1COCCN1c1cc(C2(O)CC3CCC(C2)O3)c2cnn(-c3ccn[nH]3)c2n1 (stereo not given) + CN(C)c1ccc(Nc2c3ccc(NC(=O)CCN4CCCC4)cc3nc3cc(NC(=O)CCN4CCCC4)ccc23)cc1"
  viability, T/C, %: 15.2
- Compound: "C=CC(=O)N1CCN(c2nc(=O)n(-c3c(C)ccnc3C(C)C)c3nc(-c4c(O)cccc4F)c(F)cc23)C(C)C1 (stereo not given) + Cc1cnc(CNC(=O)c2c(=O)c3ccc(N4CCCN(C)CC4)nc3n3c2sc2ccccc23)cn1"
  viability, T/C, %: 48.5

Next item in the queue.
Entry under review: CC1COCCN1c1cc(C2(O)CC3CCC(C2)O3)c2cnn(-c3ccn[nH]3)c2n1 (stereo not given) + Cc1cnc(CNC(=O)c2c(=O)c3ccc(N4CCCN(C)CC4)nc3n3c2sc2ccccc23)cn1 . Reported viability, T/C?
25.4
